Biological target: Cytochrome P450 2C19 (Homo sapiens)
Experiment: Cytochrome panel assay with activity outcomes
Conditions: recombinant CYP, pro-luciferin dealkylation, luminescence, p450-cyp2c19; series mostly up to 57.1 µM
Out of some 16,000 compounds screened, about 5,800 (36%) were called active. Inconclusive results (about 23%) are left out. Some of the results follow.
recorded metric: AC50

[[record]]
compound = "COc1cccc(-c2cc(NCc3ccccc3)ncn2)c1"
reported_value = "7.94 µM (active)"

[[record]]
compound = "Cc1cc(N2CCOCC2)ncc1[N+](=O)[O-]"
reported_value = "31.6 µM (active)"

[[record]]
compound = "O=[N+]([O-])c1ccc(N2CCOCC2)nc1"
reported_value = "inactive"

[[record]]
compound = "COc1ccc(CNc2ncnc3ccc(-c4ccc(C(=O)N(C)C)cc4)cc23)c(OC)c1"
reported_value = "15.8 µM (active)"

[[record]]
compound = "COc1ccc(CCCC(=O)NC2CCCCC2)cc1"
reported_value = "3.16 µM (active)"

[[record]]
compound = "COc1ccc(C(F)(F)F)cc1N/C=C\\c1nnnn1-c1ccccc1"
reported_value = "1.12 µM (active)"

[[record]]
compound = "O=C(Nc1cccc(Cl)c1)N1CCN2C(=O)c3ccccc3C12c1ccccc1 (centres undefined)"
reported_value = "2.24 µM (active)"

[[record]]
compound = "CC(C)(C)c1ccc(C(=O)N2CCC(C(=O)NCCC3=CCCCC3)CC2)cc1"
reported_value = "15.8 µM (active)"

[[record]]
compound = "CC(C)(C)n1ncc2c(=O)n(CC(=O)NCc3ccccc3Cl)cnc21"
reported_value = "14.1 µM (active)"

[[record]]
compound = "O=C(CSCc1ccccc1)Nc1ccc(S(=O)(=O)N2CCOCC2)cc1"
reported_value = "17.8 µM (active)"

[[record]]
compound = "O=c1c(-c2nnc(SCc3ccc(Cl)c(Cl)c3)o2)cccn1Cc1ccccc1"
reported_value = "1.41 µM (active)"

[[record]]
compound = "Cc1cccc(C)c1NC(=O)/C(C#N)=C/c1cccs1"
reported_value = "4.47 µM (active)"

[[record]]
compound = "COc1ccc2c(c1)C(=O)N(CCc1ccc(S(=O)(=O)NC(=O)NC3CCCCC3)cc1)C(=O)C2(C)C"
reported_value = "inactive"

[[record]]
compound = "C=C(C)C1CC=C(C)/C(=N/NC(=O)c2ccc(NC(=O)c3cccc(C)c3)cc2)C1 (centres undefined)"
reported_value = "1.41 µM (active)"

[[record]]
compound = "CN(C)c1cc[n+](CC(=O)Nc2cc(C(F)(F)F)ccc2Cl)cc1"
reported_value = "inactive"

[[record]]
compound = "Brc1ccc(/C=C/C=N/Nc2nc3ccccc3s2)cc1"
reported_value = "3.55 µM (active)"

[[record]]
compound = "Cc1noc(C)c1CS(=O)(=O)c1ccc(Br)cc1"
reported_value = "0.282 µM (active)"

[[record]]
compound = "Cc1ccc(NC(=O)NNS(=O)(=O)c2ccc(Br)cc2)cc1"
reported_value = "inactive"

[[record]]
compound = "COc1ccc(CCNC(=O)COc2ccc(S(=O)(=O)NC3CCCCC3)cc2Cl)cc1"
reported_value = "7.94 µM (active)"

[[record]]
compound = "COc1ccc(Cc2nnc(NC(=O)c3ccc(Cl)c([N+](=O)[O-])c3)s2)cc1"
reported_value = "inactive"

[[record]]
compound = "COc1cc(NC(=O)c2cc3nc(-c4ccccc4)cc(-c4ccccc4)n3n2)cc(OC)c1OC"
reported_value = "6.31 µM (active)"

[[record]]
compound = "Cc1cccc(N(CC(=O)NC2CCCC2)C(=O)c2cc3cc4cccc(C)c4nc3s2)c1C"
reported_value = "3.98 µM (active)"

[[record]]
compound = "O=c1c(-c2ccc(F)cc2)nc2cnc(Nc3ccccc3)nc2n1Cc1cccs1"
reported_value = "inactive"

[[record]]
compound = "Nc1cc(=O)[nH]c(SCC(=O)Nc2ccc(S(=O)(=O)N3CCOCC3)cc2)n1"
reported_value = "inactive"

[[record]]
compound = "COc1cccc(-c2cc(=O)c3ccccc3o2)c1N"
reported_value = "6.31 µM (active)"

[[record]]
compound = "O=c1c(-c2ccccc2)nc2cnc(N3CCOCC3)nc2n1Cc1cccs1"
reported_value = "inactive"

[[record]]
compound = "CNC(=O)/C(C#N)=c1\\s/c(=C/C(=O)OC)c(=O)n1-c1ccccc1"
reported_value = "5.01 µM (active)"

[[record]]
compound = "Cc1ccccc1-n1nc2c(c1NC(=O)c1c(-c3ccccc3Cl)noc1C)CSC2"
reported_value = "11.2 µM (active)"

[[record]]
compound = "CN(C)C(=O)c1ccc(-c2cc(NCc3cccnc3)ncn2)cc1"
reported_value = "inactive"

[[record]]
compound = "Cc1ccccc1Cn1cnc2c(cnn2C(C)(C)C)c1=O"
reported_value = "2 µM (active)"

[[record]]
compound = "CCCc1nc2ccccc2c(C(=O)OCC(=O)Nc2cccc(S(=O)(=O)N3CCOCC3)c2)c1CC"
reported_value = "3.55 µM (active)"

[[record]]
compound = "O=C(Nc1cccc(F)c1)N1CCC2(CC1)CCN(C(=O)c1cnccn1)CC2"
reported_value = "inactive"

[[record]]
compound = "Cc1ccc(C)c(Cn2cnc3c(cnn3C(C)(C)C)c2=O)c1"
reported_value = "0.398 µM (active)"

[[record]]
compound = "O=c1c(-c2nnc(SCc3ccc(Cl)cc3Cl)o2)cccn1Cc1ccccc1"
reported_value = "1.26 µM (active)"

[[record]]
compound = "N#C/C(=C\\c1cccs1)C(=O)NCC1CCCO1 (centres undefined)"
reported_value = "inactive"

[[record]]
compound = "O=C(O)c1cc(=O)cc(C(=O)O)[nH]1"
reported_value = "inactive"

[[record]]
compound = "O=C(NCCC1=CCCCC1)C1CCCN(c2nc3ccccc3o2)C1 (centres undefined)"
reported_value = "2.82 µM (active)"

[[record]]
compound = "Cc1ccc(C(=O)N/C(=C\\c2ccc(Br)cc2)c2nc(=S)[nH][nH]2)cc1"
reported_value = "11.2 µM (active)"

[[record]]
compound = "O=C(COC(=O)c1cccc(S(=O)(=O)N2CCOCC2)c1)Nc1nc(-c2ccccc2Cl)cs1"
reported_value = "3.98 µM (active)"

[[record]]
compound = "CCCC(=O)Nc1ccc(C(=O)Nc2cc(C(F)(F)F)ccc2Cl)cc1"
reported_value = "20 µM (active)"

[[record]]
compound = "Cn1c(=O)[nH]c2ncn(C)c2c1=O"
reported_value = "inactive"

[[record]]
compound = "CC(=O)c1cccc(NC(=O)CCC2CCCC2)c1"
reported_value = "3.55 µM (active)"

[[record]]
compound = "CCCCCCCCCCCCCCC[C@@H](O)[C@@H](N)CO"
reported_value = "inactive"

[[record]]
compound = "Cc1ccc(S(N)(=O)=O)cc1NC(=O)/C=C/c1cccs1"
reported_value = "inactive"

